Cited source for all entries: patent US9828379B2

target: UniProtKB Q8R2Y0
Sequence (Q8R2Y0 whole entry): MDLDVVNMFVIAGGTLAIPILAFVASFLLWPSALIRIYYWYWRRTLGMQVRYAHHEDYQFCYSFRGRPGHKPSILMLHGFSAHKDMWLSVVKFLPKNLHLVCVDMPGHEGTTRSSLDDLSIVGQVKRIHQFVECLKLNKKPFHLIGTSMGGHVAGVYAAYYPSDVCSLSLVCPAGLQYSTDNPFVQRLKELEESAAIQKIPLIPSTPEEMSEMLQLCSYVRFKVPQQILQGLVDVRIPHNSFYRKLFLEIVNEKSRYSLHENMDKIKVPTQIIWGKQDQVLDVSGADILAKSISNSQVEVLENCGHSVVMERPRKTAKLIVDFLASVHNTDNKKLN
measurement-description: In vitro competitive activity-based protein profiling (Table 2, % inhibition at 1 μM)
Assay type: biochemical
experimental-context: read-out: % Inhibition at 1 μM ABHD6
Description: After 30 min, FP—Rh (1.0 μL, 50 μM in DMSO) was added and the mixture was incubated for another 30 min at 37° C. Reactions were quenched with SDS loading buffer (50 μL-4×) and run on SDS-PAGE. Following gel imaging, serine hydrolase activity was determined by measuring fluorescent intensity of gel bands corresponding to MAGL, ABHD6 and FAAH using ImageJ 1.43 u software. […]
quantity-kind: inhibition at 1 µM

> print(dat)
                                   compound       quantity.kind  recorded.result
1  CCc1cc(CN2CC3CN(C(=O)OC(C(F)(F)F)C(F)(F)F)CC3C2)n(C2CCOCC2)n1 (stereo not shown)  inhibition at 1 µM            < 25%
2  CC(C)n1cc(CN2CC3CN(C(=O)OC(C(F)(F)F)C(F)(F)F)CC3C2)c(-c2ccccc2)n1 (stereo not shown)  inhibition at 1 µM        25 to 75%
3  CC(=O)N1CCC(n2nc(C)cc2CN2CC3CN(C(=O)ON4C(=O)CCC4=O)CC3C2)CC1 (stereo not shown)  inhibition at 1 µM            < 25%
4  CCn1cc(CN2CC3CN(C(=O)OC(C(F)(F)F)C(F)(F)F)CC3C2)c(C(=O)NCc2ccccc2)n1 (stereo not shown)  inhibition at 1 µM        25 to 75%
5  O=C(ON1C(=O)CCC1=O)N1CC2CN(Cc3ccc(Cl)cc3N3CCCC3)CC2C1 (stereo not shown)  inhibition at 1 µM            < 25%
6  CC(C)n1cc(CN2CC3CN(C(=O)ON4C(=O)CCC4=O)CC3C2)c(C2CCN(S(C)(=O)=O)CC2)n1 (stereo not shown)  inhibition at 1 µM            < 25%
7  CC(C)(C)c1cc(CN2CC3CN(C(=O)OC(C(F)(F)F)C(F)(F)F)CC3C2)n(C2CCOCC2)n1 (stereo not shown)  inhibition at 1 µM            < 25%
